# experimentNotes: Therapeutic index, ratio of cytotoxicity against human MT4 cells to antiviral activity against HIV NL4-3
# Format: toxicity, cell-based
# measurementConditions: read-out: TI
# reported selectivity ratio; entries follow
readoutName: selectivity ratio

>>> print(df.to_string())
                                   compound        readoutname  comparisonsign  result
0  CNc1ccccc1C(=O)O[C@@H]1[C@@H](C)[C@]2(O)[C@@H]3C=C(C)C(=O)[C@H]3CC(CO)=C[C@H]2[C@@H]2C(C)(C)[C@]12OC(C)=O [SAPINTOXIN A]  selectivity ratio               =    1100
1  CNc1ccccc1C(=O)O[C@@H]1[C@@H](C)[C@@]2(O)[C@@H](C=C(CO)C[C@]3(O)C(=O)C(C)=C[C@@H]23)[C@@H]2C(C)(C)[C@]12OC(C)=O  selectivity ratio               =    5290
2  Cc1cn([C@H]2C[C@H](N=[N+]=[N-])[C@@H](CO)O2)c(=O)[nH]c1=O [ZIDOVUDINE]  selectivity ratio               >      22
3  CCC/C=C/C=C/C=C\C(=O)O[C@@H]1[C@@H](C)[C@]2(O)[C@@H]3C=C(C)C(=O)[C@H]3CC(CO)=C[C@H]2[C@@H]2C(C)(C)[C@]12OC(C)=O  selectivity ratio               =     161
